METHOD_NOTES: chemical genetic growth profiling, strain panel (AID 1159580);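 note: tested at 20 µM; growth read once vehicle control cultures reached saturation at 30 °C; 1 = growth at the plate median or of vehicle wells; lower values mean less growth of the strain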
MEASUREMENT_SETUP: S. cerevisiae deletion strains, growth OD, locus YBR171W, strain sec66
The whole screen tested about 5,500 compounds, of which about 2,000 (36%) were called active. Roughly 18% stayed inconclusive and do not appear here. Cut-off read from the data, not from the text of the source: active = normalized growth mostly below about 0.91 (no sharp cut-off); inconclusive = no clear call, values can overlap the other calls; inactive = mostly above about 0.92. The list shows a part of the results.
Lab note: assign the record to one of 1 = active, -1 = inactive

Sample answers from the record:
MOLECULE	GROUP
Oc1ccc(Cl)c2cccnc12	1
CC(=O)Oc1ccc(Cl)c2cccnc12	1
CN[C@H](CC(=O)O)C(=O)O	-1
COc1ccccc1OCCNCC(O)COc1cccc2[nH]c3ccccc3c12 (centres undefined)	-1
C[n+]1cccc(C(=O)[O-])c1	-1

Give the logged outcome of this assay for the following molecule: O=C(O)CCCCC1CCSS1 (centres undefined)
-1

Per the assay record, what outcome was assigned to Oc1c(Cl)cc(Cl)c2cccnc12 ?
1

Dear all, I need the recorded test outcome for CC(C)NCC(O)c1ccc(O)c(O)c1 (centres undefined) , thank you.
-1

Test call, this molecule: C=C(CC)C(=O)c1ccc(OCC(=O)O)c(Cl)c1Cl
-1

What was the test verdict on O=[N+]([O-])c1cc([As](=O)(O)O)ccc1O ?
-1
